# ASSAY_TARGET: Serine/threonine-protein kinase ULK2 (Homo sapiens, UniProt Q8IYT8)
# Sequence (Q8IYT8 whole entry): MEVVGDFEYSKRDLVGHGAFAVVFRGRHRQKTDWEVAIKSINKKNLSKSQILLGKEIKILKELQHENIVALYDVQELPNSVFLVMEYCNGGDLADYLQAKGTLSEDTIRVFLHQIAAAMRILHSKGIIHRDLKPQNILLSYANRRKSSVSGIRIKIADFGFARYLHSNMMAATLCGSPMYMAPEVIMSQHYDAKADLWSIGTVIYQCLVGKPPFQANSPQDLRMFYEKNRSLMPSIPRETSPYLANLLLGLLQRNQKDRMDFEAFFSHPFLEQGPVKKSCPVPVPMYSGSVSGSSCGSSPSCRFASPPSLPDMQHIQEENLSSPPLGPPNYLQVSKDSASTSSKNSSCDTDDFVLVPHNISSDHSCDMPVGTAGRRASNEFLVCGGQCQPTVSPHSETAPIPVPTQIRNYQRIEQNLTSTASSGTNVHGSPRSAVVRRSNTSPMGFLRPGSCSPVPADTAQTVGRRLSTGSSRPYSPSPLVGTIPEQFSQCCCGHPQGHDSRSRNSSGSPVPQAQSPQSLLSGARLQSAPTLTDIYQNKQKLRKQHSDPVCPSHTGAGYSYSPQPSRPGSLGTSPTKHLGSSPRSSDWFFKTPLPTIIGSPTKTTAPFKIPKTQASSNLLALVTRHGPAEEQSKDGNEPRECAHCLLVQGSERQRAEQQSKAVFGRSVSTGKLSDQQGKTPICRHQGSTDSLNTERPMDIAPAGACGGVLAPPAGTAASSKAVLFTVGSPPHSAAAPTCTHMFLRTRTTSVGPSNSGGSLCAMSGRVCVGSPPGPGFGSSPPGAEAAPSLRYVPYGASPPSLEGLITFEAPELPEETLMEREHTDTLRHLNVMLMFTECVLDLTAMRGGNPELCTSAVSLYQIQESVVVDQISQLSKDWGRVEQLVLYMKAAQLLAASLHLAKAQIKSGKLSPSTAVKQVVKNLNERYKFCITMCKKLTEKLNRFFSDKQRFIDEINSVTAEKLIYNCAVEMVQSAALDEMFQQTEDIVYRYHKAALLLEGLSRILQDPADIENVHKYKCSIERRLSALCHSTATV
READOUT_TYPE: pIC50
Units for pIC50: none; it is -log10 of a concentration expressed in mol/L.

State pIC50 (Serine/threonine-protein kinase ULK2 (Homo sapiens, UniProt Q8IYT8)) of CCc1cc(N2CCN(C)CC2)ccc1Nc1ncc(C(F)(F)F)c(NCCCN2CCOCCC2=O)n1 .
8.05

Data origin: ChEMBL document CHEMBL6120936
